target: Fuc(a1-3)[Gal(b1-4)]GlcNAc(b1-2)Man(a1-3)[Fuc(a1-3)[Gal(b1-4)]GlcNAc(b1-2)Man(a1-6)]Man(b1-4)GlcNAc(b1-4)[Fuc(a1-6)]GlcNAc; test: glycan array binding signal (z-score within array); higher = stronger binding; details: glycan notation: IUPAC condensed, linker removed
Many of the other results were omitted from the sample, so the strongest signals are more common in it than they were.
Catalogue of glycan array binding signal (z-score) values

- binder: "CBM40 CPF071 (Clostridium perfringens) (protein) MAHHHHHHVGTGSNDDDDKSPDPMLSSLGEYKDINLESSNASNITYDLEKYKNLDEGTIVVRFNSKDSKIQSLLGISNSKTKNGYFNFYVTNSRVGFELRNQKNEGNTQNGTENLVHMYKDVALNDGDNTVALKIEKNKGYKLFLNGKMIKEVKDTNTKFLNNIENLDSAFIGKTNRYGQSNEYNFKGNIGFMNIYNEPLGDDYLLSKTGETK"
  glycan array binding signal (z-score): -0.443
- binder: "Epf (Streptococcus pyogenes) (protein) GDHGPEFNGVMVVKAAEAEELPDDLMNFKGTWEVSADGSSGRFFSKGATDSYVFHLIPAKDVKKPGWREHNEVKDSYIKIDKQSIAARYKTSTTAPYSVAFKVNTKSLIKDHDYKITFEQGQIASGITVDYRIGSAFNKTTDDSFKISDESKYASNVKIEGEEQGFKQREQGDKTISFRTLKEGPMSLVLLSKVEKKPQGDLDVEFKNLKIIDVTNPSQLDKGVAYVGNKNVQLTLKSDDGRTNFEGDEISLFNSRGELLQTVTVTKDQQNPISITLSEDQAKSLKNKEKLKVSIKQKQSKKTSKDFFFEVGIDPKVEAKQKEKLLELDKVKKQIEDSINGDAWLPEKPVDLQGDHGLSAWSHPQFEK"
  glycan array binding signal (z-score): -0.996
- binder: "Pwp7 (Candida glabrata) (protein) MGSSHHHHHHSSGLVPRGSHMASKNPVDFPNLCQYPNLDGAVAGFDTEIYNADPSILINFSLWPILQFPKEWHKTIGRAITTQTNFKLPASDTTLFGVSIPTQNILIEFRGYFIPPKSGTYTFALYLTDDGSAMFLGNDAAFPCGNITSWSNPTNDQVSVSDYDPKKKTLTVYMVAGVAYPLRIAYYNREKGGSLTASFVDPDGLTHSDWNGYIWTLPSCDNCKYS"
  glycan array binding signal (z-score): -0.531
- binder: "LlpA (Burkholderia cenocepacia) (protein) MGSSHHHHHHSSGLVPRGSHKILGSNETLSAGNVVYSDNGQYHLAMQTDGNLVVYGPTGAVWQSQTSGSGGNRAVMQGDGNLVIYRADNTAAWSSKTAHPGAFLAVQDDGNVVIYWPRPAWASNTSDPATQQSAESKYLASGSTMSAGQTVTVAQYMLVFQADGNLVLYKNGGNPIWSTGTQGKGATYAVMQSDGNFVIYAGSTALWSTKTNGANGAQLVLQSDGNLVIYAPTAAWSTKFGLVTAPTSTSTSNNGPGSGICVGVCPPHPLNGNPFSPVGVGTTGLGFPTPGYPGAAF"
  glycan array binding signal (z-score): 2.08
- binder: "Epa3to1 (Candida glabrata) (protein) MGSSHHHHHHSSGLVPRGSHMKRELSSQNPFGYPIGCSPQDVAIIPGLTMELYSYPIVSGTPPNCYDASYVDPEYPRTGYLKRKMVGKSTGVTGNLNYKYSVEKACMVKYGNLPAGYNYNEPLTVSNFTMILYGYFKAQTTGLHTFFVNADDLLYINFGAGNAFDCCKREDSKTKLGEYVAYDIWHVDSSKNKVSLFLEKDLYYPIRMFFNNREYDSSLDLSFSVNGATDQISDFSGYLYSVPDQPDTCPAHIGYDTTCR"
  glycan array binding signal (z-score): 0.093
- binder: "CFEM-CGl (Candida glabrata), Q6FRS0 (protein) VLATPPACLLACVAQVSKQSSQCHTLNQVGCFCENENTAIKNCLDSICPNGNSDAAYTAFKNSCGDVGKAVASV"
  glycan array binding signal (z-score): -0.347
